Protocol Summary: Single dose pharmacokinetics (SDPK) in female C57BL/6J mice
Type: in vivo
Condition Set: female, C57BL/6J, mouse, plasma; prior art compounds (Table 4), 1 mg/kg, iv
Value Kind: C0 (ng/mL)

> print(dat)
                                   molecule  value.kind    uom  value
1  CCn1nc(C)c(O)c1-c1nnc(-c2nc(C(N)=O)cc3c2cnn3C)[nH]1 [AC01, reference compound]          C0  ng/mL    997

----------
Items are presented alongside their recorded pEC50.
Tested on: interferon regulatory factor (IRF) pathway in THP1-Dual™ cells
Protocol Summary: THP1-Dual reporter gene assay (Agonist_THP1_EC50)
Assay type: cell-based
Condition Set: Homo sapiens, 20-24 hrs compound treatment, Lucia luciferase (IRF) readout
pEC50: −log10 of the molar value.
Value Kind: pEC50

> print(dat)
                                    compound  value.kind  value
 1  CCCn1nc(C)c(O)c1-c1nc(-c2cc(C(N)=O)n3cc(C)ncc23)co1 [Example 94]       pEC50   7.82
 2  CCCCn1nc(C)c(O)c1-c1n[nH]c(-c2nc(C(N)=O)n3cc(C)ncc23)n1 [Example 77]       pEC50   7.77
 3  Cc1cc2c(C(N)=O)nn(-c3nc(-c4c(O)c(C)nn4C4CC4)n[nH]3)c2cn1 [Example 33]       pEC50   6.87
 4  Cc1cn2c(C(N)=O)nc(-c3nc(-c4c(O)c(C)nn4CCc4nccs4)n[nH]3)c2cn1 [Example 90]       pEC50   7.52
 5  CCCCn1nc(C)c(O)c1-c1n[nH]c(-c2c(F)c(C(N)=O)n3cc(C)ncc23)n1 [Example 76]       pEC50   7.82
 6  CCn1nc(C)c(O)c1-c1nc(-c2c(F)c(C(N)=O)n3cc(C)ncc23)co1 [Example 28]       pEC50   6.87
 7  CCCCn1nc(C)c(O)c1-c1nc(-n2nc(C(N)=O)c3cc(C)ncc32)n(C)n1 [Example 49]       pEC50   7.24
 8  CCn1nc(C)c(O)c1-c1n[nH]c(-c2cc(C(N)=O)c3cc(C)ncn23)n1 [Example 20]       pEC50   6.55
 9  Cc1cn2c(C(N)=O)nc(-c3nc(-c4c(O)c(C)nn4CCc4cccnc4)n[nH]3)c2cn1 [Example 72]       pEC50   7.82
10  Cc1cn2c(C(N)=O)nc(-c3nc(-c4c(O)c(C)nn4CCc4ccc(CO)cc4)n[nH]3)c2cn1 [Example 71]       pEC50   7.82
11  CCn1nc(C)c(O)c1-c1n[nH]c(-c2nc(C(N)=O)n3cc(C(F)F)ncc23)n1 [Example 26]       pEC50   6.47
12  Cc1cc2c(C(N)=O)nn(-c3nc(-c4c(O)c(C)nn4CCCF)n[nH]3)c2cn1 [Example 41]       pEC50   7.32
13  Cc1nn(CCC#N)c(-c2n[nH]c(-c3nc(C(N)=O)cc4c3cnn4C)n2)c1O [Example 25]       pEC50   7.30
14  Cc1cc2c(C(N)=O)nn(-c3nc(-c4c(O)c(C)nn4CCc4ccc(F)cc4)n[nH]3)c2cn1 [Example 52]       pEC50   7.89
15  Cc1cc2c(C(N)=O)nn(-c3nc(-c4c(O)c(C)nn4CCc4ccncc4)n[nH]3)c2cn1 [Example 46]       pEC50   7.01
16  Cc1cc2c(C(N)=O)nn(-c3nc(-c4c(O)c(C)nn4CCc4ccccc4)n[nH]3)c2cn1 [Example 40]       pEC50   7.96
17  CCCn1nc(C)c(O)c1-c1n[nH]c(-c2c(F)c(C(N)=O)n3cc(C)ncc23)n1 [Example 79]       pEC50   8.30
18  Cc1cn2c(C(N)=O)c(F)c(-c3nc(-c4c(O)c(C)nn4CCC#N)n[nH]3)c2cn1 [Example 30]       pEC50   6.49
19  CCCn1nc(C)c(O)c1-c1n[nH]c(-c2nc(C(N)=O)n3cc(C)ncc23)n1 [Example 80]       pEC50   7.70
20  Cc1cn2c(C(N)=O)nc(-c3nc(-c4c(O)c(C)nn4CCc4ccc(CN5CCOCC5)cc4)n[nH]3)c2cn1 [Example 87]       pEC50   7.28
21  Cc1cn2c(C(N)=O)c(F)c(-c3nc(-c4c(O)c(C)nn4CCc4ccccc4)n[nH]3)c2cn1 [Example 57]       pEC50   7.21
22  Cc1cc2c(C(N)=O)nn(-c3nc(-c4c(O)c(C)nn4CCc4ccc(CO)cc4)n[nH]3)c2cn1 [Example 68]       pEC50   7.57
23  CC#CCCn1nc(C)c(O)c1-c1n[nH]c(-c2nc(C(N)=O)cc3c2cnn3C)n1 [Example 45]       pEC50   8.05
24  Cc1cc2c(C(N)=O)nn(-c3nc(-c4c(O)c(C)nn4CCc4cccc(F)c4)n[nH]3)c2cn1 [Example 55]       pEC50   7.89
25  Cc1cc2c(C(N)=O)nn(-c3coc(-c4c(O)c(C)nn4CCc4ccc(CN5CCOCC5)cc4)n3)c2cn1 [Example 88]       pEC50   6.75
26  CCn1nc(C)c(O)c1-c1nc(-n2cc(C(N)=O)c3cc(C)ncc32)co1 [Example 29]       pEC50   6.21
27  CCn1nc(C)c(O)c1-c1nc(-c2nc(C(N)=O)cc3c2cnn3C)c(C(F)F)o1 [Example 10]       pEC50   6.38
28  COCc1ccc(CCn2nc(C)c(O)c2-c2n[nH]c(-n3nc(C(N)=O)c4cc(C)ncc43)n2)cc1 [Example 64]       pEC50   7.89
29  COc1ccc(CCn2nc(C)c(O)c2-c2n[nH]c(-c3c(F)c(C(N)=O)n4cc(C)ncc34)n2)cc1 [Example 69]       pEC50   7.03
30  CCn1nc(C)c(O)c1-c1n[nH]c(-n2nc(C(N)=O)c3cc(C)ncc32)n1 [Example 22]       pEC50   7.09
31  COCCn1nc(C)c(O)c1-c1n[nH]c(-n2nc(C(N)=O)c3cc(C)ncc32)n1 [Example 42]       pEC50   7.35
